experiment: Drug level in mouse blood at 50 mg/kg, po after 30 mins by microbiological assay; type: ADME, organism-based; parameters: dose 50 mg/kg, route oral; conditions: read-out: Drug uptake
Exercise: for every item that follows, state its recorded concentration at 0.5 h.
The answer should read as a number with its unit following.

Here is how some compounds turned out for concentration at 0.5 h.
[[record]]
compound = "N[C@@H](C(=O)N[C@@H]1C(=O)N2C(C(=O)O)=C(Cc3cccc(C(=O)O)c3)CS[C@H]12)c1ccccc1"
recorded_endpoint = "concentration at 0.5 h"
reported_result = "1800 ng/mL"

[[record]]
compound = "N[C@@H](C(=O)N[C@@H]1C(=O)N2C(C(=O)O)=C(Cc3cncc(C(=O)O)c3)CS[C@H]12)c1ccccc1"
recorded_endpoint = "concentration at 0.5 h"
reported_result = "1700 ng/mL"

[[record]]
compound = "N[C@@H](C(=O)N[C@@H]1C(=O)N2C(C(=O)O)=C(Cc3ccccc3C(=O)O)CS[C@H]12)c1ccccc1"
recorded_endpoint = "concentration at 0.5 h"
reported_result = "2400 ng/mL"

[[record]]
compound = "N[C@@H](C(=O)N[C@@H]1C(=O)N2C(C(=O)O)=C(Cc3cccnc3)CS[C@H]12)c1ccccc1"
recorded_endpoint = "concentration at 0.5 h"
reported_result = "1250 ng/mL"

[[record]]
compound = "CC1=C(C(=O)O)N2C(=O)[C@@H](NC(=O)[C@H](N)c3ccccc3)[C@H]2SC1 [CEPHALEXIN ANHYDROUS]"
recorded_endpoint = "concentration at 0.5 h"
reported_result = "21700 ng/mL"

[[record]]
compound = "N[C@@H](C(=O)N[C@@H]1C(=O)N2C(C(=O)O)=C(Cc3ccccc3)CS[C@H]12)c1ccccc1"
recorded_endpoint = "concentration at 0.5 h"
reported_result = "210 ng/mL"


Batch: concentration at 0.5 h for all items listed.
1. CC(=O)OCC1=C(C(=O)O)N2C(=O)[C@@H](NC(=O)[C@H](N)c3ccccc3)[C@H]2SC1 [CEPHALOGLYCIN]
2. N[C@@H](C(=O)N[C@@H]1C(=O)N2C(C(=O)O)=C(Cc3ccc(C(=O)O)cc3)CS[C@H]12)c1ccccc1

1. 2000 ng/mL
2. 1600 ng/mL

---

Exercise: for every item that follows, state its recorded concentration at 10 min.
assay: Drug level in mouse blood at 50 mg/kg, iv after 10 mins by microbiological assay; format: ADME, organism-based; design: dose 50 mg/kg, route intravenous; conditions: read-out: Drug uptake
Answers are plain numbers, in µg/mL.

Here is how some compounds turned out for concentration at 10 min.
[[record]]
compound = "O=C(Cc1cccs1)N[C@@H]1C(=O)N2C(C(=O)[O-])=C(C[n+]3ccccc3)CS[C@H]12 [CEPHALORIDINE]"
recorded_endpoint = "concentration at 10 min"
reported_result = 48.8

[[record]]
compound = "N[C@@H](C(=O)N[C@@H]1C(=O)N2C(C(=O)O)=C(Cc3ccc(C(=O)O)cc3)CS[C@H]12)c1ccccc1"
recorded_endpoint = "concentration at 10 min"
reported_result = 70.3

[[record]]
compound = "CC(=O)OCC1=C(C(=O)O)N2C(=O)[C@@H](NC(=O)[C@H](N)c3ccccc3)[C@H]2SC1 [CEPHALOGLYCIN]"
recorded_endpoint = "concentration at 10 min"
reported_result = 62.4


Next, consider the following compound.
I am curious: what concentration at 10 min value has been reported for `N[C@@H](C(=O)N[C@@H]1C(=O)N2C(C(=O)O)=C(Cc3ccccc3C(=O)O)CS[C@H]12)c1ccccc1` ? 102
